This collection of values is drawn from patent US20250383350.

- targetOrSystem: IL-8 (CXCL8), C-terminally biotinylated, directly surface-captured (Homo sapiens, UniProt P10145 P10145:28-99)
- Sequence (P10145 28-99, one chain of several): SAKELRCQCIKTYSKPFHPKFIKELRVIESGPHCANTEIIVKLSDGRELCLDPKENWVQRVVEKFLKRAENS
- assayExplanation: single-molecule TIRF; direct IL-8 capture; 25% horse serum, 21 C; kon 5.68e6, koff 0.50
- appliedConditions: tags: C-terminal biotin; Chemotactics B-CXCL8-2 ug; immobilized on streptavidin; label: 5'-Cy5
measuredAttribute: Kd (nM)
Number in nM, nothing else.

For the binder shown here, GGGUUAUCAUUCCAUUUAGUGUUAUGAUAA (ssRNA, 2'-F at all pyrimidines) [8A-30 (SEQ ID NO 3)] , give the reported Kd. 88
